# Test system: EKVX NSCLC
# experiment notes: NCI tumour cell line growth inhibition, 48 h
Exercise: for every item that follows, state its recorded GI50.

Q: // output GI50; input Cc1cc(-c2nc3n(c2/C=N/N=C(N)N)CCS3)c(C)s1 ; system EKVX NSCLC
A: 15.2 µM

Q: Give measured GI50 for C[C@@H](CS[As](C)C)C(=O)N1CCC[C@H]1C(=O)O (EKVX NSCLC).
A: 0.723 µM

Q: Name the value of GI50 reported for O=C(CSC(c1ccccc1)c1ccccc1)N/N=C/c1ccccc1Cl when tested on EKVX NSCLC.
A: 2.75 µM

Q: Give EKVX NSCLC GI50 for the following compound: COc1cc2c(NC3CCN(C(C)C)CC3)nc(C3CCCCC3)nc2cc1OCCCN1CCCC1
A: 8.42 µM

Q: Print EKVX NSCLC GI50 for CC(C)c1[nH]nc2c(NCc3ccc(-c4ccccn4)cc3)nc(SCCN(C)C)nc12 .
A: 0.0494 µM

Q: Quote EKVX NSCLC GI50 for entry CC(=O)CCc1ccc(Oc2c3c(nc4ccccc24)OCC3)cc1 .
A: 13.8 µM

###

Record form. Attribute: TGI. Fill in for each entry.
# Test system: IGROV1 ovarian
# experiment notes: NCI tumour cell line growth inhibition, 48 h

Q: Please supply the value of reported TGI for the item CC(C)N1C(C)[C@@H](c2ccccc2)O[P@@]1(=O)CC1=CCCCC1 (stereo not given in full)
A: > 100 µM

Q: State its TGI for this compound: CO[C@@H]1C[C@H]2[C@@H]3CC[C@H]([C@H](C)COC(C)=O)[C@@]3(C)CC[C@@H]2[C@@]2(C)CC[C@H]3C[C@]312
A: > 100 µM

Q: // Input: CC(=O)CCc1ccc(Oc2c3c(nc4ccccc24)OCC3)cc1 . Output its TGI only.
A: > 100 µM

Q: Give the measured TGI for CC1(C)N=C(c2ccccc2)SC12S[C@@H]1CCCC[C@H]1S2
A: > 100 µM

Q: Provide TGI value for the following compound: O=c1[nH]c2ccc(Cl)cc2o1
A: > 100 µM

Q: Annotate the compound Cc1c(Cl)cccc1NC(=O)c1sc2nc3c(cc2c1N)C(=O)CCC3 with its measured TGI.
A: > 100 µM

Q: Find the measured TGI of Cc1c(NC(=O)CSC(=S)N(C)C)c(=O)n(-c2ccccc2)n1C and report it.
A: > 100 µM

Q: Determine from records and report TGI for CC(C)(C)[Si](C)(C)OCCc1ccccc1C1CC2(S(=O)(=O)c3ccccc3)ON1CC2S(=O)(=O)c1ccccc1 (stereo not given)
A: > 100 µM

Q: Tell me measured TGI for COc1ccc2cc(CN3CCC(C4CCN(Cc5ccc6cc(OC)ccc6c5)CC4)CC3)ccc2c1 please.
A: 21.6 µM

Q: Quickly give me recorded TGI for COc1cc2c3c(n(CCN4CCOCC4)c(=O)c2cc1OC)-c1ccccc1C3=O
A: > 100 µM

Q: Retrieve TGI measured for COC(=O)[C@@H](NC(=O)[C@H](N)Cc1ccc(N(CCCl)CCCl)cc1)C(C)C and print it.
A: 45.1 µM

Q: Item Cc1cccc(Nc2nc3ccccc3nc2NS(=O)(=O)c2ccccc2)c1 : provide TGI
A: > 100 µM

Q: Provide one value: measured TGI of COc1cc2c(NC3CCN(C(C)C)CC3)nc(C3CCCCC3)nc2cc1OCCCN1CCCC1
A: 26.9 µM

Q: For CSc1nnc(-c2cc3c([nH]c4ccccc43)c(-c3cccc(O)c3)n2)n1-c1ccc(C)cc1 , write its TGI.
A: 24.6 µM

Q: Output TGI of C[C@H]1COCCN1c1nc(-c2cnc(N)cc2C(F)F)nc(N2CCOCC2)n1
A: 0.285 µM

Q: Consider the compound CCC[n+]1cc2cc3c(cc2c2c1-c1cc4c(cc1C2)OCO4)OCO3 (tested in a mixture with another compound) . State its measured TGI.
A: 7.81 µM

Q: For CC(C)c1[nH]nc2c(NCc3ccc(-c4ccccn4)cc3)nc(SCCN)nc12 , write its TGI.
A: 12.4 µM

Q: Give the reported TGI for this compound. C(=C\c1ccncc1)/c1ccncc1
A: > 100 µM

Q: Tell me its TGI given CC(=O)[CH-]C(=O)c1ccccc1.CC(=O)[CH-]C(=O)c1ccccc1.CC[C@H](/C=C/C(C)[C@H]1CCC2[C@@H]3CC=C4C[C@@H]([O-])CC[C@]4(C)C3CC[C@@]21C)C(C)C.CC[C@H](/C=C/C(C)[C@H]1CCC2[C@@H]3CC=C4C[C@@H]([O-])CC[C@]4(C)C3CC[C@@]21C)C(C)C.Cl.[Ti+4] (stereo not given in full) as the entry.
A: > 25 µM

Q: Give reported TGI value for C#CCOc1cccc(Nc2ncnc3cc(NC(=O)C=C)ccc23)c1
A: > 100 µM

Q: Return reported TGI. Input compound: CN1C(=O)[C@H](c2c[nH]c3ccccc23)[C@H](c2c[nH]c3ccccc23)C1=O
A: > 45.3 µM

Q: For the compound C=C1C(=O)O[C@H]2[C@H]1CC/C(COC(=O)CCCCCCCC(=O)OC/C1=C/CC[C@@]3(C)O[C@H]3[C@H]3OC(=O)C(=C)[C@@H]3CC1)=C\CC[C@@]1(C)O[C@@H]21 , report TGI.
A: 5.92 µM

Q: Find the measured TGI of Cc1ccc2c(c1)C=CC1(O2)N(c2ccccc2)C(=S)OC1(C)C (stereo not given) and report it.
A: > 100 µM

Q: Look up and state reported TGI for COc1ccc(/C=N/N=C(\N)NO)cc1F
A: > 100 µM

Q: Given C=CCC(N[C@H](CO)c1ccccc1)c1ccccn1 (stereo not given in full) , respond with its TGI.
A: > 100 µM

Q: Supply measured TGI of Cc1cccc2c1Sc1ccccc1C2NC(=O)CN(C)C (stereo not given) in your reply.
A: > 100 µM

Q: For Cn1c2c(c3ccccc3c1=O)C(=O)c1ccccc1-2 , write its TGI.
A: > 100 µM

Q: For the compound CN(C)c1cc2c(Nc3ccc4c(cnn4Cc4ccccc4)c3)ncnc2cn1 , give its reported TGI.
A: > 23.3 µM

Q: Please indicate TGI recorded for CN(C)CC1C(=O)O[C@H]2[C@H]1CC/C(COC(=O)NCc1ccc(Cn3c(=O)sn(CCCI)c3=O)cc1)=C\CC[C@@]1(C)O[C@@H]21 (stereo not given in full)
A: 1.97 µM

Q: State, in one line, measured TGI of Cc1ccc(N=Nc2c(O)ccc3n[nH]nc23)cc1
A: 50.6 µM

###

# Tested on: HCC-2998 colon
# experiment notes: NCI tumour cell line growth inhibition, 48 h; in the data active = GI50 below about 0.43 µM; inactive = the rest
Result category, one only: 1 (active), -1 (inactive)

Q: Dear colleague, could you share the recorded outcome for CNCC(=O)NC(CO)C(=O)NC(CO)C(=O)NC1C(C(N)=O)OC(n2ccc(N)nc2=O)C(O)C1O (centres undefined) when you have a moment?
A: -1

Q: // param item: COc1ccc(/C=C\c2cc(OC)c(OC)c(OC)c2)cc1OC(=O)CC(N)C(=O)O (centres undefined) ; yields the recorded call
A: 1

Q: For CC1=CC(C)(C)Nc2ccc(Cc3ccc4c(c3)C(C)=CC(C)(C)N4)cc21 , which call appears in the assay record?
A: -1

Q: # lookup: test call for c1csc(-c2ccc(CNc3c4ccccc4nc4ccccc34)cc2)c1
A: -1

###

# Tested on: HS 578T breast
# experiment notes: NCI tumour cell line growth inhibition, 48 h; in the data active = GI50 below about 0.43 µM; inactive = the rest
Allowed answers: active, inactive

Q: Check the results log: what was the call for CCC[n+]1cc2cc3c(cc2c2c1-c1cc4c(cc1C2)OCO4)OCO3 (tested in a mixture with another compound) ?
A: inactive

Q: // outcome(item) with item = C[C@@H](CS[As](C)C)C(=O)N1CCC[C@H]1C(=O)O
A: active

Q: Which outcome was assigned to COc1ccc(/C=C\c2cc(OC)c(OC)c(OC)c2)cc1OC(=O)CC(N)C(=O)O (stereo unspecified) in this test?
A: active

Q: // param item: CC(=O)O[C@@H]1C2=C(C)C3(CC3)[C@@](C)(O)C(=O)C2=C[C@@]1(C)CO ; yields the recorded call
A: inactive

Q: Look up the recorded call for CC(=O)CCc1ccc(Oc2c3c(nc4ccccc24)OCC3)cc1 in this test.
A: inactive

Q: # lookup: test call for Cc1cc2c3c([n+](C)c4ccc(F)cc4c3c1)-c1cc(F)ccc1N2C
A: inactive

###

# Test system: HCT-116 colon
# experiment notes: NCI tumour cell line growth inhibition, 48 h; in the data active = GI50 below about 0.43 µM; inactive = the rest
Parameter call: string, one of active, inactive

Q: Hi team, can someone confirm the assay call for [Cl][Hg][c]1ccc2ccccc2c1 ?
A: inactive

Q: Please indicate how the test categorized CC1=NN(c2cccc(Cl)c2)C(=O)/C1=C\C=C\c1ccccc1 .
A: inactive

Q: // return assay outcome for CN(C)CC1C(=O)O[C@H]2[C@H]1CC/C(COC(=O)NCc1ccc(Cn3c(=O)sn(CCCI)c3=O)cc1)=C\CC[C@@]1(C)O[C@@H]21 (stereo partly specified)
A: inactive

Q: Can you look up the reported call for CC(=O)O[C@@H]1C2=C(C)C3(CC3)[C@@](C)(O)C(=O)C2=C[C@@]1(C)CO for me?
A: active

Q: Please state the recorded outcome for this compound: COc1cccc(N2CCN(c3ncnc4cc[nH]c34)CC2)c1
A: inactive

Q: Hey, what did the test say about Cc1ccnc2c(NC(C)CCCN)cc(O)c(O)c12 (stereo unspecified) ?
A: inactive

All values here come from PubChem BioAssay (NCI).
